Collected S (sensitive) isolates, n (%) values appear next to each entry.
Tested on: C. tropicalis
Assay type: cell-based, Candida tropicalis
Starred links: 1 amine or outer side, 2 acyl side, 3 side chain; linkers in the order of their positions; H or OH if unused. Positions of bridges follow the written chain, without caps; N, C: chain ends. Non-standard residues stand in square brackets, D forms with d. Residues, ends and D or L forms follow the SMILES beside them. *: point of attachment. hTyr(3S-OH,4S-OH,3'-OSO3H) = N[C@H](C(=O)O)[C@H](O)[C@@H](O)c1ccc(O)c(OS(=O)(=O)O)c1; Orn(4R-OH,5R-OH) = O=C([C@H](C[C@@H](O)[C@@H](O)N[*:3])N[*:1])[*:2]; Pro(3S-OH,4S-Me) = C[C@H]1CN[C@H](C(=O)O)[C@H]1O; X1 = CCCCCOc1ccc(-c2cc(-c3ccc(C(=O)*)cc3)no2)cc1; Gln(3R-OH) = NC(=O)C[C@@H](O)[C@H](N)C(=O)O; Hyp = O=C(O)[C@@H]1C[C@@H](O)CN1

Below: 4 molecules and their reported S (sensitive) isolates, n (%).
MOLECULE	MEASURED ON	S (sensitive) isolates, n (%)
CC[C@H](C)C[C@H](C)CCCCCCCCC(=O)N[C@H]1C[C@@H](O)[C@@H](NCCN)NC(=O)[C@@H]2[C@@H](O)CCN2C(=O)[C@H]([C@H](O)CCN)NC(=O)[C@H]([C@H](O)[C@@H](O)c2ccc(O)cc2)NC(=O)[C@@H]2C[C@@H](O)CN2C(=O)[C@H]([C@@H](C)O)NC1=O	C. tropicalis	44 (100%)
C[C@@H](c1ncncc1F)[C@](O)(Cn1cncn1)c1ccc(F)cc1F	C. tropicalis	57 (100%)
OC(Cn1cncn1)(Cn1cncn1)c1ccc(F)cc1F	C. tropicalis	57 (100%)
Nc1nc(=O)[nH]cc1F	C. tropicalis	57 (100%)

S (sensitive) isolates, n (%) value, target or system C. tropicalis, for `C[C@@H]1[C@H](O)[C@@H](C)/C=C/C=C/C=C/C=C/C=C/C=C/C=C/[C@H](O[C@@H]2O[C@H](C)[C@@H](O)[C@H](N)[C@@H]2O)C[C@@H]2O[C@](O)(C[C@@H](O)C[C@@H](O)[C@H](O)CC[C@@H](O)C[C@@H](O)CC(=O)O[C@H]1C)C[C@H](O)[C@H]2C(=O)O` : 57 (100%)

Measured S (sensitive) isolates, n (%) for this entry CCCCCOc1ccc(-c2cc(-c3ccc(C(=O)N[C@H]4C[C@@H](O)[C@@H](O)NC(=O)[C@@H]5[C@@H](O)[C@@H](C)CN5C(=O)[C@H]([C@H](O)CC(N)=O)NC(=O)[C@H]([C@H](O)[C@@H](O)c5ccc(O)c(OS(=O)(=O)O)c5)NC(=O)[C@@H]5C[C@@H](O)CN5C(=O)[C@H]([C@@H](C)O)NC4=O)cc3)no2)cc1 [micafungin] (X1-[Orn(4R-OH,5R-OH)]T[Hyp][hTyr(3S-OH,4S-OH,3'-OSO3H)][Gln(3R-OH)][Pro(3S-OH,4S-Me)]; lactam 1-C) on C. tropicalis: 44 (100%)

----------
Tested on: C. krusei ATCC 6558
Assay: Broth microdilution of modified HDPs
Format: cell-based, Candida krusei
Settings: 0.19 to 50 μg/mL tested
No end group written: not given here.
VALUE TYPE: MIC (µg/mL)
Quick note: give the figure in µg/mL, leave out the unit.

response.value for KSKRWRKFEKRVKKIFEKFKEAK-NH2 [Act2.2] (field: MIC) = 0.78

Query GSKRWRKFEKRVKKVFEHTKEA-NH2 [ox322] yields MIC of 1.56

Measured MIC, GSKRWRKFEKRVKKIFEKTKEAK-NH2 [Act6] : 0.78

Record KSKRWRKFEKRVKKIFEKTKEAK-NH2 [Act2] , field MIC: 0.78

The measured MIC associated with GSKRWRKFEKRVKKIFEKTKEA-NH2 [Act5] reads 1.56

Noted for GSKRWRKFEKRVKK-NH2 [domcec] : its MIC reads 3.12
